// pKd lookup, one value per entry
biological target: T1, Smad7 PY peptide Ac-ELESPPPPYSRYPMD-NH2 (203-217) (human); assay: ITC
T1 peptide: Ac-ELESPPPPYSRYPMD-NH2
When answering, recall that pKd equals minus log10 of the concentration in mol/L, and write that number alone.

[ask] Supply reported pKd belonging to this binder: GPLPPGWEIRNTATGEVYFVDHNNRTTQFTDPRLSAN (domain or fragment, human, UniProt Q9HAU4 297-333, looked up) [Smurf2 WW3 domain R312E]
[reply] 4.47

Turning to the following binder.
[ask] Supply reported pKd belonging to this binder: DELGPLPPGWEVRSTVSGEIYFVDHNNRTTQFTDPRLH (domain or fragment, human, UniProt Q9HCE7-2 277-314, looked up) [Smurf1 WW2 domain Arg295Glu]
[reply] 4.31
